Ref: ChEMBL document CHEMBL4024801

Tested on: LLC-MK2
Assay: Cytotoxicity against monkey LLC-MK2 cells after 3 to 4 days by crystal violet staining-based spectrophotometric method
Type: cell-based, Macaca mulatta
Settings: rhesus monkey
endpoint: CC50

| line notation | endpoint | result |
| --- | --- | --- |
| CC(C)n1ncc2c(C(=O)Nc3c(F)cc(F)cc3F)cc(-c3cccs3)nc21 | CC50 | > 200 µM |
| CC(C)n1ncc2c(C(=O)Nc3ccccc3F)cc(-c3ccccc3)nc21 | CC50 | > 200 µM |
| CC(C)n1ncc2c(C(=O)Nc3cccc(S(=O)(=O)N(C)C)c3)cc(-c3cccs3)nc21 | CC50 | > 200 µM |
| CC(C)n1ncc2c(C(=O)Nc3ccc(F)cc3F)cc(-c3cccs3)nc21 | CC50 | > 200 µM |
| CC(C)n1ncc2c(C(=O)Nc3ccc(F)cc3)cc(-c3cccs3)nc21 | CC50 | > 200 µM |
| CC(C)n1ccc2c(C(=O)Nc3ccccn3)cc(-c3cccs3)nc21 | CC50 | > 200 µM |
| CC(C)n1ncc2c(C(=O)Nc3ccc(F)cc3)cc(-c3ccco3)nc21 | CC50 | > 200 µM |

---

System: Coxsackievirus B3
Assay: Antiviral activity against Coxsackievirus B3 infected in human HeLa-RW cells assessed as protection against virus-induced cytopathic effect after 3 to 4 days by crystal violet staining-based spectrophotometric method
Type: functional, cell-based
Conditions: Enterovirus B

| line notation | value units | reported relation | EC50 |
| --- | --- | --- | --- |
| CC(C)n1ncc2c(C(=O)Nc3ccc(F)cc3Br)cc(-c3cccs3)nc21 | nM | > | 10000 |
| CC(C)n1ncc2c(-c3nc4ccc(F)cc4o3)cc(-c3cccs3)nc21 | nM | > | 10000 |
| CC(C)n1ncc2c(C(=N)Nc3cccnc3)cc(-c3cccs3)nc21 | nM | > | 10000 |
| CC(C)n1ncc2c(C(=O)Nc3ccccc3F)cc(-c3cnco3)nc21 | nM | > | 10000 |
| CC(C)n1ncc2c(C(=O)Nc3ccccn3)cc(-c3cccs3)nc21 | nM | = | 800 |
| CC(C)n1ncc2c(C(=O)Nc3ccc(F)cc3)nc(-c3cccs3)nc21 | nM | > | 10000 |
| CC(C)n1ncc2c(C(=O)N3CCc4cc(F)ccc43)cc(-c3cccs3)nc21 | nM | = | 1900 |
| CC(C)n1ncc2c(C(=N)Nc3ccc(F)cc3)cc(-c3cccs3)nc21 | nM | > | 10000 |
| CC(C)n1ncc2c(C(=O)Nc3ccc(F)c(S(N)(=O)=O)c3)cc(-c3cccs3)nc21 | nM | = | 1100 |
| CC(C)n1ccc2c(C(=O)Nc3cccnc3)cc(-c3cccs3)nc21 | nM | = | 1300 |
| CC(C)n1ncc2c(C(=O)Nc3ccc(S(C)(=O)=O)cc3)cc(-c3cccs3)nc21 | nM | = | 1000 |
| CC(C)n1ncc2c(C(=O)Nc3ccccc3S(N)(=O)=O)cc(-c3cccs3)nc21 | nM | = | 2600 |
| CC(C)n1ncc2c(C(=O)Nc3cccc(S(N)(=O)=O)c3)cc(-c3cccs3)nc21 | nM | = | 1300 |
| CC(C)n1ncc2c(C(=O)Nc3ccc(S(N)(=O)=O)cc3)cc(-c3cccs3)nc21 | nM | > | 10000 |
| CC(C)n1ncc2c(C(=O)Nc3ccccc3F)cc(-c3cccnc3)nc21 | nM | = | 7000 |
| CC(C)n1ncc2c(C(=O)Nc3ccccc3F)cc(-c3ccccc3)nc21 | nM | = | 4500 |
| CC(C)n1ncc2c(C(=O)Nc3ccncn3)cc(-c3ccsc3)nc21 | nM | = | 1200 |
| CC(C)n1ncc2c(C(=O)Nc3cc(S(N)(=O)=O)ccc3F)cc(-c3cccs3)nc21 | nM | = | 700 |
| CC(C)n1ncc2c(C(=O)Nc3cccnc3)cc(-c3ccsc3)nc21 | nM | = | 600 |
| CC(C)n1ncc2c(C(=O)Nc3ccccc3C(F)(F)F)cc(-c3cccs3)nc21 | nM | > | 10000 |
| CC(C)n1ncc2c(C(=O)Nc3ccccn3)cc(-c3ccsc3)nc21 | nM | = | 1200 |
| CC(C)n1ncc2c(C(=O)Nc3cc(F)cc(F)c3)cc(-c3cccs3)nc21 | nM | > | 10000 |
| CC(C)n1ncc2c(C(=O)N3CCc4cccnc43)cc(-c3cccs3)nc21 | nM | = | 9400 |

---

Parameter EC50: see the listing below.
Test system: Coxsackievirus B3
Assay: Antiviral activity against Coxsackievirus B3 infected in human HeLa-RW cells assessed as protection against virus-induced cytopathic effect after 3 to 4 days by crystal violet staining-based spectrophotometric method
Assay type: functional, cell-based
Conditions: Enterovirus B

| line notation | EC50 |
| --- | --- |
| CC(C)n1ncc2c(NS(=O)(=O)c3ccc(F)cc3)cc(-c3cccs3)nc21 | > 10 µM |
| CC(C)n1ncc2c(C(=O)Nc3ccccc3F)cc(-c3nccs3)nc21 | > 10 µM |
| CC(C)n1ncc2c(C(=O)Nc3cccc(S(N)(=O)=O)c3)cc(C3CC3)nc21 | > 10 µM |
| CC(C)n1ncc2c(C(=O)Nc3ccc(C(F)(F)F)cc3)cc(-c3cccs3)nc21 | > 25 µM |
| CC(C)n1cnc2c(C(=O)Nc3ccc(F)cc3)cc(-c3cccs3)nc21 | > 10 µM |
